target: Orexin type 1 (OX1R) receptor (Homo sapiens, UniProt O43613); construct: expressed in transfected cells; host or cells: CHO cells (G418 selection); test: In vitro orexin antagonism assay: intracellular calcium measurement (FLIPR), orexin-A 3 nM as agonist; assay type: cell-based; settings: second value of IC50/Kb cell
Sequence (O43613 whole entry): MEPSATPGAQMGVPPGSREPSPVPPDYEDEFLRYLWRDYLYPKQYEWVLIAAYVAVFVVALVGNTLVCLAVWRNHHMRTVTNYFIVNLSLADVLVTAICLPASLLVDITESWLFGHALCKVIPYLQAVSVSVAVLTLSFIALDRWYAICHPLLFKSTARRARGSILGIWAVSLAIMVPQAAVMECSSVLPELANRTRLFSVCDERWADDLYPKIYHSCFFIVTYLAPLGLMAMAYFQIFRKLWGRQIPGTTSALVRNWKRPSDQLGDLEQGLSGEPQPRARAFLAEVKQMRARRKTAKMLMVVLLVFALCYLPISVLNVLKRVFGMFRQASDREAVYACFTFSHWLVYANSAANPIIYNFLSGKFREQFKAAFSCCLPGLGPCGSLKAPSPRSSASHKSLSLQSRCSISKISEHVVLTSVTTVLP
Let's look at some molecules and their measured Kb.
Reported metric: Kb

                         compound_structure  reported_metric  measured
0  O=C(c1c(-c2ccccc2F)nn2ccccc12)N1CCC[C@H]1Cn1cc(-c2ccccn2)cn1               Kb     10 nM
1  O=C(c1nc2ccccn2c1-c1ccccn1)N1CCC[C@H]1Cn1ccc(-c2ccccn2)n1               Kb      4 nM
2  O=C(c1c(-c2ccc(F)cc2)nn2c1COCC2)N1CCC[C@H]1Cn1ccc(-c2ccc(F)cc2)n1               Kb     26 nM
3  O=C(c1nc2ccccn2c1-c1ccccn1)N1CCC[C@H]1Cn1ccc(-c2ccc(F)cn2)n1               Kb      6 nM
4  O=C(c1nc2ccccn2c1-c1ccccn1)N1CCC[C@H]1Cc1nc(-c2ccccn2)no1               Kb     63 nM
5  [2H]C1([2H])CC[C@@]([2H])(Cn2ccc(-c3ccc(F)cc3)n2)N1C(=O)c1c(-c2ccccc2)nc2ccc(F)cn12               Kb      4 nM
6  O=C(c1c(-c2ccccc2F)nn2ccccc12)N1CCC[C@H]1Cn1cc(-c2ccccc2)cn1               Kb      2 nM
7  O=C(c1c(-c2ccccn2)nn2ccccc12)N1CCC[C@H]1Cc1nc(-c2ccccn2)no1               Kb      5 nM
8  O=C(c1nn2cccnc2c1-c1ccccn1)N1CCC[C@H]1Cn1ccc(-c2ccccn2)n1               Kb      3 nM
9  O=C(c1c(-c2ccccn2)nn2ccccc12)N1CCC[C@H]1Cn1ccc(-c2ccc(F)cn2)n1               Kb      3 nM

* * *

Let's look at some compounds and their measured inhibition at 1 µM.
target: Orexin type 1 (OX1R) receptor (Homo sapiens, UniProt O43613); construct: expressed in transfected cells; host or cells: CHO cells (G418 selection); assay: In vitro orexin antagonism assay: intracellular calcium measurement (FLIPR), orexin-A 3 nM as agonist; assay type: cell-based; settings: read-out: OX1R, % Inh. @ 1 uM
Reported metric: inhibition at 1 µM (%)

In [3]: df
Out[3]:
                                   compound     reported_metric  value_units  measured
0  O=C(c1c(-c2ncccn2)nn2ccccc12)N1CCC[C@H]1Cc1nc(-c2ccccn2)no1 [Example 155]  inhibition at 1 µM            %        69
1  O=C(c1nn2c(c1-c1ccccn1)CCOC2)N1CCC[C@H]1Cc1nc(-c2ccc(F)cn2)no1 [Example 222]  inhibition at 1 µM            %        55
2  O=C(c1nn2ccccc2c1-c1ccccc1)N1CC[C@H]1Cn1ccc(-c2ccc(F)cn2)n1 [Example 115]  inhibition at 1 µM            %        60
3  O=C(c1c(-c2ccccc2)nn2cccnc12)N1CCC[C@H]1Cn1ccc(-c2ccccc2)n1 [Example 133]  inhibition at 1 µM            %        99
